PROCEDURE_TEXT: chemical genetic growth profiling, strain panel (AID 1159580);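 note: tested at 20 µM; growth read once vehicle control cultures reached saturation at 30 °C; 1 = growth at the plate median or of vehicle wells; lower values mean less growth of the strain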
CONDITION_DETAILS: S. cerevisiae deletion strains, growth OD, locus YDR137W, strain rgp1, active compounds read low
The campaign covered roughly 5,500 compounds. About 2,000 (36%) were called active. Not shown: some 18% with an inconclusive outcome. The list shows a part of the results.
MEASURED_PARAMETER: normalized growth
Output: the number by itself.

Use the examples below as a reference point.
{"MOLECULE": "OCCN(CCO)c1nc(N2CCCCC2)c2nc(N(CCO)CCO)nc(N3CCCCC3)c2n1", "MEASURED_PARAMETER": "normalized growth", "RECORDED_RESULT": 1.01}
{"MOLECULE": "COc1ccc2c(c1)[C@@]1(C)CCC(=O)C[C@H]1CC2", "MEASURED_PARAMETER": "normalized growth", "RECORDED_RESULT": 0.902}
{"MOLECULE": "O=C(O)c1cc(=O)c2ccc(Cl)cc2[nH]1", "MEASURED_PARAMETER": "normalized growth", "RECORDED_RESULT": 1.01}

Supply recorded normalized growth for COc1cccc2c1CCC1CC(=O)CCC21C (configuration not stated) here.
0.998

Supply recorded normalized growth for "CC[C@H]1OC(=O)C[C@@H](O)[C@H](C)[C@@H](O[C@@H]2O[C@H](C)[C@@H](O[C@H]3C[C@@](C)(O)[C@@H](O)[C@H](C)O3)[C@H](N(C)C)[C@H]2O)[C@@H](CC=O)C[C@@H](C)C(=O)/C=C/C(C)=C/[C@@H]1CO[C@@H]1O[C@H](C)[C@@H](O)[C@@H](OC)[C@H]1OC" here.
1.03

Supply recorded normalized growth for "Cc1ccc2c(c1)CC[C@H]1CC(=O)CC[C@]21C" here.
0.956

Supply recorded normalized growth for "CCC1(c2ccccc2)C(=O)NCNC1=O" here.
1.02

Supply recorded normalized growth for CO[C@H]1C[C@H](O[C@H]2[C@H](C)[C@@H](OC3O[C@H](C)C[C@H](N(C)C)[C@H]3O)[C@@H](C)C[C@]3(CO3)C(=O)[C@H](C)[C@@H](O)[C@@H](C)[C@@H](C)OC(=O)[C@@H]2C)O[C@@H](C)[C@@H]1O (some centres not stated) here.
0.998

Supply recorded normalized growth for "CCCCOc1ccc(CC(=O)NO)cc1" here.
0.857
